species: Rattus norvegicus; experiment: DrugMatrix - Regimen: Daily Repeat; type: toxicity, organism-based, Sprague-Dawley; parameters: regimen Daily Repeat, gender Male, age 6-8 weeks; conditions: in vivo, po, 0 mg/kg, 72 h, tissue Blood, route oral GAVAGE, dose level Control, time 3 day, vehicle .5 % CMC
Can you tell me PLATELET COUNT for the items I'm about to list?
Answers are plain numbers, in x10E3/uL.

Below: 7 molecules and their reported PLATELET COUNT.
>>> print(df.to_string())
                                   molecule  reading_unit  recorded_measurement
0  O=C1Nc2ccc(Cl)cc2C(c2ccccc2Cl)=NC1O (stereo not drawn)      x10E3/uL                  1342
1  O=C1CN=C(c2ccccc2Cl)c2cc([N+](=O)[O-])ccc2N1      x10E3/uL               1118.17
2  C[C@H]1O[C@@H](n2cc(F)c(=O)[nH]c2=O)[C@H](O)[C@@H]1O      x10E3/uL               1118.17
3    COC1=C(OC)C(=O)C(CCCCCCCCCCO)=C(C)C1=O      x10E3/uL               1118.17
4           COc1ccc(C2C(=O)c3ccccc3C2=O)cc1      x10E3/uL                1068.8
5                  Clc1ccccc1CN1CCc2sccc2C1      x10E3/uL                1068.8
6  CN(C)[C@@H]1C(O)=C(C(N)=O)C(=O)[C@@]2(O)C(O)=C3C(=O)c4c(O)ccc(Cl)c4[C@@](C)(O)[C@H]3C[C@@H]12      x10E3/uL                1188.5

// switching to the query molecule
Query: Quick one: PLATELET COUNT for `CC(=O)Oc1ccc(C(c2ccc(OC(C)=O)cc2)c2ccccn2)cc1` ?
Response: 1264.4
